Hello, the source for this data is PubChem BioAssay (NCI), in case you need it.

# assay-comment: NCI Yeast Anticancer Drug Screen. Data for the bub3 strain (AID 167)
# run-conditions: S. cerevisiae bub3 mutant strain, at 50.0 µM, active compounds read high
The panel holds about 79,000 compounds, 15% with a hit somewhere; the sample as a whole holds those more often.
endpoint-name: growth inhibition (%)

| compound | numeric-result |
| --- | --- |
| CNCC1OC(OC)C2OC(C)(C)OC12 (stereo not given) | -21.1 |
| CCOC(=O)c1ccccc1C(=O)c1ccccc1O | -5.45 |
| O=C(OCC(O)C(O)C(O)COC(=O)c1ccccc1)c1ccccc1 (stereo not given) | -22.8 |
| CCOC(=O)CNC(=O)CCC(=O)OC | 5.55 |
| COC(=O)/C=C(C)/C=C/c1cc(C(C)=O)c(C)o1 | 29.6 |
| COC(=O)C(N)Cc1ccc(O)c(O)c1 (stereo not given) | 22.9 |
| Cc1cccc(Cl)c1N | -2.4 |
| O=C1CSc2ccnc(=O)n21 | -9.8 |
| Cc1ccc(C(=O)OCc2ccccc2CN2CCCCC2)cc1 | 3.6 |
| Nc1nc2c(nc(Br)n2C2OC(CO)C(O)C2O)c(=O)[nH]1 (stereo not given) | 1.8 |
| N/C(=C\C(=O)c1ccccc1)C(=O)c1ccccc1 | 0.65 |
| CCc1c(C(=O)OC)c(C(=O)OC)c(-c2ccc(C)cc2)n1CCn1c(CC)c(C(=O)OC)c(C(=O)OC)c1-c1ccc(C)cc1 | -3.15 |
| Cc1ccc(C2C3CCC(=O)C=C3CN2C=O)cc1O (stereo not given) | -2.6 |
| O=C(OCCN=c1c2ccccc2ccc2ccccc12)c1cc([N+](=O)[O-])cc([N+](=O)[O-])c1 | 13.6 |
| C/C=C/C1OC(OC)(OC)C1(OC)OC (stereo not given) | 11.3 |
| COc1ccc(N=C(C)c2c(O)n(-c3ccccc3)[nH]c2=O)cc1 | 98.8 |
| O=C(/C=C/c1cccs1)c1ccc(C(=O)/C=C/c2cccs2)cc1 | -3.5 |
| O=S(=O)(/N=c1/ccc(NS(=O)(=O)c2ccccc2)cn1O)c1ccccc1 | 10.6 |
| Cc1ccc(C)c(NC(=O)Oc2ccc(Cl)cc2Cc2ccccc2)c1 | 8.2 |
| C=C(C)COc1ccc(Nc2ccccc2)cc1 | 2.35 |
| CN(Cc1ccccc1)N=NCc1ccccc1 | 3.65 |
| CCN1C(=O)C(=O)C(CC)(CC)C1=O | 0.85 |
| Cc1ccc2[nH]c(=S)n(CCc3ccccc3)c(=O)c2c1 | 10.4 |
| CN(Cc1ccccc1)C(=O)c1ccc(C(=O)N(C)Cc2ccccc2)cc1 | 35.1 |
| NCC(=O)NC1CCCCC1 | -3.65 |
